Where do these numbers come from? They come from PubChem BioAssay AID2060496.

# System: 276233-004-R-J1-PDC complex spheroid viability
# test: Anticancer human tumor 276233-004-R-J1-PDC patient-derived colon adenocarcinoma cell line growth inhibition [GQUAD]; active means viability on the fitted dose curve at most 10% of control; inactive means the rest
# experimental parameters: second compound 1 µM; first compound 0.316 µM
Answer with one of the outcomes active, inactive

Query block: Write down the call the test reported for this compound. Item: CCCS(=O)(=O)Nc1ccc(F)c(C(=O)c2c[nH]c3ncc(-c4ccc(Cl)cc4)cc23)c1F + CN(C)c1ccc(Nc2c3ccc(NC(=O)CCN4CCCC4)cc3nc3cc(NC(=O)CCN4CCCC4)ccc23)cc1
Result block: inactive

Query block: Write down the call the test reported for this compound. Item: CCc1c2c(nc3ccc(O)cc13)-c1cc3c(c(=O)n1C2)COC(=O)[C@]3(O)CC + Cc1[nH]c2ccc(F)cc2c1-c1nc2c3cccnc3c3ncccc3c2[nH]1
Result block: inactive

Query block: Write down the call the test reported for this compound. Item: C=CC(=O)N1CCN(c2nc(=O)n(-c3c(C)ccnc3C(C)C)c3nc(-c4c(O)cccc4F)c(F)cc23)C(C)C1 (stereo not given) + Cc1[nH]c2ccc(F)cc2c1-c1nc2c3cccnc3c3ncccc3c2[nH]1
Result block: inactive

Query block: Write down the call the test reported for this compound. Item: O=C(c1cc(Cc2n[nH]c(=O)c3ccccc23)ccc1F)N1CCN(C(=O)C2CC2)CC1 + CN(C)c1ccc(Nc2c3ccc(NC(=O)CCN4CCCC4)cc3nc3cc(NC(=O)CCN4CCCC4)ccc23)cc1
Result block: inactive

Query block: Write down the call the test reported for this compound. Item: Cc1[nH]c2ccccc2c1CCNCc1ccc(/C=C/C(=O)NO)cc1 + Cc1[nH]c2ccc(F)cc2c1-c1nc2c3cccnc3c3ncccc3c2[nH]1
Result block: active

---

# Tested on: 276233-004-R-J1-PDC complex spheroid viability
# test: Anticancer human tumor 276233-004-R-J1-PDC cell line growth inhibition [GQUAD];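 further: spheroids exposed to drugs for seven days; 100% = DMSO vehicle control viability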
# experimental parameters: second compound 1 µM; first compound 0.316 µM; stronger effect = lower value
# Excerpt: DNA G-quadruplex Stabilizer Agents in Combinations in Complex Spheroids A high-throughput screen of multi-cell type tumor spheroids was designed to identify active combinations of DNA G-quadruplex stabilizer agents and targeted small molecules. […] Compounds. […] If the clinical Cmax for an agent had not been determined, the highest concentration tested was 10 microM. […]
experimental endpoint: viability, T/C

Recorded result, CC[C@@]1(O)C(=O)OCc2c1cc1n(c2=O)Cc2cc3c(CN(C)C)c(O)ccc3nc2-1 + Cc1cnc(CNC(=O)c2c(=O)c3ccc(N4CCCN(C)CC4)nc3n3c2sc2ccccc23)cn1 , viability, T/C: 107%

Recorded result, COc1ccc([C@@H](O)c2cc(-c3ncnc4cc(N5CCOCC5)ccc34)c(F)cc2Cl)nn1 + Cc1[nH]c2ccc(F)cc2c1-c1nc2c3cccnc3c3ncccc3c2[nH]1 , viability, T/C: 67%

Recorded result, CC(C)(O)C1CCC(Nc2ccc3ncc(-c4cccc(C(F)(F)F)c4)n3n2)CC1 (stereo not given) + Cc1[nH]c2ccc(F)cc2c1-c1nc2c3cccnc3c3ncccc3c2[nH]1 , viability, T/C: 40%

Recorded result, CC(=O)O[C@H]1C(=O)[C@@]2(C)[C@H]([C@H](OC(=O)c3ccccc3)[C@]3(O)C[C@H](OC(=O)[C@H](O)[C@@H](NC(=O)c4ccccc4)c4ccccc4)C(C)=C1C3(C)C)[C@]1(OC(C)=O)CO[C@@H]1C[C@@H]2O + Cc1cnc(CNC(=O)c2c(=O)c3ccc(N4CCCN(C)CC4)nc3n3c2sc2ccccc23)cn1 , viability, T/C: 88.6%

Recorded result, Cn1ncnc1[C@H]1c2n[nH]c(=O)c3cc(F)cc(c23)N[C@@H]1c1ccc(F)cc1 + CN(C)c1ccc(Nc2c3ccc(NC(=O)CCN4CCCC4)cc3nc3cc(NC(=O)CCN4CCCC4)ccc23)cc1 , viability, T/C: 52.8%

---

# System: 276233-004-R-J1-PDC complex spheroid viability
# test: Anticancer human tumor 276233-004-R-J1-PDC cell line growth inhibition [GQUAD];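 further: spheroids exposed to drugs for seven days; 100% = DMSO vehicle control viability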
# experimental parameters: second compound 10 µM; first compound 3.16 µM; stronger effect = lower value
Decision: viability, T/C beneath 40% gives 1; viability, T/C meeting or exceeding 40% gives -1.

Query block: A record lists C=CC(=O)N1CCN(c2nc(=O)n(-c3c(C)ccnc3C(C)C)c3nc(-c4c(O)cccc4F)c(F)cc23)C(C)C1 (stereo unspecified) + Cc1cnc(CNC(=O)c2c(=O)c3ccc(N4CCCN(C)CC4)nc3n3c2sc2ccccc23)cn1 . Is its viability, T/C below 40%?
Result block: -1

Query block: A record lists CC1COCCN1c1cc(-c2ccnn2C)c2ccnc(-c3ccn[nH]3)c2n1 (stereo unspecified) + Cc1[nH]c2ccc(F)cc2c1-c1nc2c3cccnc3c3ncccc3c2[nH]1 . Is its viability, T/C below 40%?
Result block: 1

Query block: A record lists O=c1[nH]cc(F)c(=O)[nH]1 + Cc1cnc(CNC(=O)c2c(=O)c3ccc(N4CCCN(C)CC4)nc3n3c2sc2ccccc23)cn1 . Is its viability, T/C below 40%?
Result block: -1

Query block: A record lists Cc1cccc(N(C)C(=O)C2C(O)CCN2c2nc(C)cc(C(F)(F)F)c2C#N)c1 (stereo unspecified) + CN(C)c1ccc(Nc2c3ccc(NC(=O)CCN4CCCC4)cc3nc3cc(NC(=O)CCN4CCCC4)ccc23)cc1 . Is its viability, T/C below 40%?
Result block: -1

Query block: A record lists O=C(NO)c1cnc(N2CCN(S(=O)(=O)c3ccc4ccccc4c3)CC2)nc1 + CN(C)c1ccc(Nc2c3ccc(NC(=O)CCN4CCCC4)cc3nc3cc(NC(=O)CCN4CCCC4)ccc23)cc1 . Is its viability, T/C below 40%?
Result block: 1

Query block: A record lists CC(C)n1c(=O)n(C)c2cnc3cc(F)c(-c4ccc(OCCCN5CCCCC5)nc4)cc3c21 + Cc1[nH]c2ccc(F)cc2c1-c1nc2c3cccnc3c3ncccc3c2[nH]1 . Is its viability, T/C below 40%?
Result block: -1

Query block: A record lists CC(=O)O[C@H]1C(=O)[C@@]2(C)[C@H]([C@H](OC(=O)c3ccccc3)[C@]3(O)C[C@H](OC(=O)[C@H](O)[C@@H](NC(=O)c4ccccc4)c4ccccc4)C(C)=C1C3(C)C)[C@]1(OC(C)=O)CO[C@@H]1C[C@@H]2O + Cc1[nH]c2ccc(F)cc2c1-c1nc2c3cccnc3c3ncccc3c2[nH]1 . Is its viability, T/C below 40%?
Result block: 1

Query block: A record lists COc1cc(C2c3cc4c(cc3C(OC3OC5COC(C)OC5C(O)C3O)C3COC(=O)C23)OCO4)cc(OC)c1O (stereo unspecified) + CN(C)c1ccc(Nc2c3ccc(NC(=O)CCN4CCCC4)cc3nc3cc(NC(=O)CCN4CCCC4)ccc23)cc1 . Is its viability, T/C below 40%?
Result block: -1

Query block: A record lists C=CCn1c(=O)c2cnc(Nc3ccc(N4CCN(C)CC4)cc3)nc2n1-c1cccc(C(C)(C)O)n1 + Cc1cnc(CNC(=O)c2c(=O)c3ccc(N4CCCN(C)CC4)nc3n3c2sc2ccccc23)cn1 . Is its viability, T/C below 40%?
Result block: -1

Query block: A record lists COc1ncnc(C2CC2)c1-c1ncc2cnn(Cc3ccc(-c4nc(C(F)(F)F)cn4C(C)C)cc3)c2n1 + Cc1[nH]c2ccc(F)cc2c1-c1nc2c3cccnc3c3ncccc3c2[nH]1 . Is its viability, T/C below 40%?
Result block: 1

Query block: A record lists O=c1[nH]cc(F)c(=O)[nH]1 + CN(C)c1ccc(Nc2c3ccc(NC(=O)CCN4CCCC4)cc3nc3cc(NC(=O)CCN4CCCC4)ccc23)cc1 . Is its viability, T/C below 40%?
Result block: -1

---

# Test system: 276233-004-R-J1-PDC complex spheroid viability
# test: Anticancer human tumor 276233-004-R-J1-PDC cell line growth inhibition [GQUAD];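 further: spheroids exposed to drugs for seven days; 100% = DMSO vehicle control viability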
# experimental parameters: second compound 3.16 µM; first compound 0.316 µM; stronger effect = lower value
Decision: viability, T/C beneath 70% gives t; viability, T/C meeting or exceeding 70% gives f.

Query block: A record lists CC1COCCN1c1cc(-c2ccnn2C)c2ccnc(-c3ccn[nH]3)c2n1 (stereo unspecified) + Cc1[nH]c2ccc(F)cc2c1-c1nc2c3cccnc3c3ncccc3c2[nH]1 . Is its viability, T/C below 70%?
Result block: t

Query block: A record lists COc1cc(C2c3cc4c(cc3C(OC3OC5COC(C)OC5C(O)C3O)C3COC(=O)C23)OCO4)cc(OC)c1O (stereo unspecified) + Cc1[nH]c2ccc(F)cc2c1-c1nc2c3cccnc3c3ncccc3c2[nH]1 . Is its viability, T/C below 70%?
Result block: t

Query block: A record lists Nc1ccn(C2OC(CO)C(O)C2(F)F)c(=O)n1 (stereo unspecified) + Cc1[nH]c2ccc(F)cc2c1-c1nc2c3cccnc3c3ncccc3c2[nH]1 . Is its viability, T/C below 70%?
Result block: t

Query block: A record lists CC1COCCN1c1cc(-c2ccnn2C)c2ccnc(-c3ccn[nH]3)c2n1 (stereo unspecified) + Cc1cnc(CNC(=O)c2c(=O)c3ccc(N4CCCN(C)CC4)nc3n3c2sc2ccccc23)cn1 . Is its viability, T/C below 70%?
Result block: t

Query block: A record lists COc1cccc2c1C(=O)c1c(O)c3c(c(O)c1C2=O)CC(O)(C(=O)CO)CC3OC1CC(N)C(O)C(C)O1 (stereo unspecified) + Cc1cnc(CNC(=O)c2c(=O)c3ccc(N4CCCN(C)CC4)nc3n3c2sc2ccccc23)cn1 . Is its viability, T/C below 70%?
Result block: f
